pIC50: recorded values
target: p110β/p85α (Homo sapiens, UniProt P42338); construct: purchased Millipore; assay: Transcreener KINASE Assay, kinase inhibition of p110β/p85α; format: biochemical; details: read-out: PI3Kβ IC50
Sequence (P42338 whole entry, species assumed): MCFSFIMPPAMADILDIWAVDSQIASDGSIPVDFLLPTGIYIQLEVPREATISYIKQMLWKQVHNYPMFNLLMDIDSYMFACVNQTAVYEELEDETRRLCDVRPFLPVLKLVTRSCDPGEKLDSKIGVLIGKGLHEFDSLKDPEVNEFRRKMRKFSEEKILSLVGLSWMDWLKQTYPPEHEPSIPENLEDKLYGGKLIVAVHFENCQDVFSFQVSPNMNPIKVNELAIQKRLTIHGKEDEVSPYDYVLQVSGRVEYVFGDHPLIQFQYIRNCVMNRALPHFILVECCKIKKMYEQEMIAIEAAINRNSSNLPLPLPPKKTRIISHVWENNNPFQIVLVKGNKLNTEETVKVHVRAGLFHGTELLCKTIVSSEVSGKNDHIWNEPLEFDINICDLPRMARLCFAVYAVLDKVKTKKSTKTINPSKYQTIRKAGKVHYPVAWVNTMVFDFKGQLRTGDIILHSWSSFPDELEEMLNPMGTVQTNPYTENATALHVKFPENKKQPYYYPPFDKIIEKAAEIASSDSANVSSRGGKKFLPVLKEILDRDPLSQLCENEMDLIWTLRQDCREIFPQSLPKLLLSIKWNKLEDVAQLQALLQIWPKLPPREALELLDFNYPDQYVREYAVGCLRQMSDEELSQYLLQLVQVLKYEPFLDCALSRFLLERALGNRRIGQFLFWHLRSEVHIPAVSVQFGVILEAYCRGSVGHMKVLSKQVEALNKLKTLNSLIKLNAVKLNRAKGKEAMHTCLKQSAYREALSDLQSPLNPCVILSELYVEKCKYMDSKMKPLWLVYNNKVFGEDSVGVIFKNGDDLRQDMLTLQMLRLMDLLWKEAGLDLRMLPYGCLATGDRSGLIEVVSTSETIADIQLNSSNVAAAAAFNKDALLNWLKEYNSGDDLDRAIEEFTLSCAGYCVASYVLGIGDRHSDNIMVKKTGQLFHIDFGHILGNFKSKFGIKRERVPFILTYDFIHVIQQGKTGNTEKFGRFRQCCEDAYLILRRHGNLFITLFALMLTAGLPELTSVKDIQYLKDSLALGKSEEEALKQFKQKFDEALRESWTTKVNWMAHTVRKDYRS
Sequence (P27986 whole entry partner, species assumed): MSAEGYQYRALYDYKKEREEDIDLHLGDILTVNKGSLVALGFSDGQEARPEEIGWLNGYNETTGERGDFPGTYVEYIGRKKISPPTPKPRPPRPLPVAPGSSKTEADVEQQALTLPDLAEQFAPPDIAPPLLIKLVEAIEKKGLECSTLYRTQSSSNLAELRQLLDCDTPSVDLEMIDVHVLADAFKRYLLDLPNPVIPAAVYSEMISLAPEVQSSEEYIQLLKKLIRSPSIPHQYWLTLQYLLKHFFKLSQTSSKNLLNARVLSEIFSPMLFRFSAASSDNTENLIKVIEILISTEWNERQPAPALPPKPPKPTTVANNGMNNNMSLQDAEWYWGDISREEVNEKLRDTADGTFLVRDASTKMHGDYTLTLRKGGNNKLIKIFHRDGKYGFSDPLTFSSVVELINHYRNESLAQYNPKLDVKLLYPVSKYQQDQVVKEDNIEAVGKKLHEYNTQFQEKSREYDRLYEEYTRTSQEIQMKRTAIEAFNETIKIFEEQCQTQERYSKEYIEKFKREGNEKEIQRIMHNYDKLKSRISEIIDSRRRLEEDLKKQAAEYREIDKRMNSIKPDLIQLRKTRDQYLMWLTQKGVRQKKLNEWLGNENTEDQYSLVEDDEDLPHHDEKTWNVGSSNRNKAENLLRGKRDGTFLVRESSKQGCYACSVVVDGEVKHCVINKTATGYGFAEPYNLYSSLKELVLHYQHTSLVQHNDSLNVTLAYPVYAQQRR
Bear in mind: pIC50 is minus log10 of a mol/L concentration; give just that figure.

Check out these entries, answers already filled in.
Enquiry: Which pIC50 value belongs to CC(Nc1ncnc(N)c1C#N)c1cn2ccc(Cl)c2c(=O)n1-c1ccc(F)cc1 (stereo not shown) ?
Return: 8.22

Enquiry: Which pIC50 value belongs to CC(Nc1nc(N)ncc1C#N)c1cn2ccc(F)c2c(=O)n1-c1ccccc1 (single isomer, unassigned) ?
Return: 7.35

Now consider a different compound.
Enquiry: Which pIC50 value belongs to CC(=O)c1cnc(N)nc1NC(C)c1cn2ccc(F)c2c(=O)n1-c1ccccc1 (single isomer, unassigned) ?
Return: 7.89
